# tested.on: recombinant human Cox-2 (r-hu Cox-2) (Homo sapiens)
# Construct: made in house; host or cells: baculovirus/Sf9 insect cells (microsomes)
# Sequence (P35354 18-604): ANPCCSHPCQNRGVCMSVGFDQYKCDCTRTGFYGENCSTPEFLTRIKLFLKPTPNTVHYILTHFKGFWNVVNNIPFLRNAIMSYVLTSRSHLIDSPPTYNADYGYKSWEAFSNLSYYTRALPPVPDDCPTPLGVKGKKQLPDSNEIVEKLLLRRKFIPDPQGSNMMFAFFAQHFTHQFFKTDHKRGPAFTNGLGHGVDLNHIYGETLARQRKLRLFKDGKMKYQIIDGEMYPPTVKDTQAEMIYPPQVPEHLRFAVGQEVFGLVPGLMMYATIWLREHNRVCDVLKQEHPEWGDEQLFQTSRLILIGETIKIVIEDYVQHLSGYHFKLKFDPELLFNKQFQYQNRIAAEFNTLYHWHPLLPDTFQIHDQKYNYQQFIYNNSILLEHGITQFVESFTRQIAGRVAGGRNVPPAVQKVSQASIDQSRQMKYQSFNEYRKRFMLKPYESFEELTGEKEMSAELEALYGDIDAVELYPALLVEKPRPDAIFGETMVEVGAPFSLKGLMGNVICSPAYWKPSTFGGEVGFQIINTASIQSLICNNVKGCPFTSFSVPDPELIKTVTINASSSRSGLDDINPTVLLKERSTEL
# method: Recombinant human PGHS-2 enzyme assay (RHUCX2)
# Type: biochemical
# reported.conditions: 0.01 μM; read-out: RHUCX2 % Inh. at Dose
# Description: To compare the mean responses of the treatment groups, analysis of variance was applied. Percent inhibition values were determined by comparing the individual treatment mean values to the mean of the control group. […] EIA reagents for prostaglandin determination were purchased from Perseptive Diagnostics, (Cambridge, Mass.). Prostaglandin E2 (PGE2) levels in lavage fluids were determined after the samples were dried under nitrogen and reconstituted with assay buffer. […]
readout.name: inhibition at 0.01 µM (%)
One number for each entry, in %.

For each of the compounds below, state inhibition at 0.01 µM.
1. CCC(C)CCOc1c(-c2ccc(S(C)(=O)=O)cc2)cnn(-c2ccc(F)c(F)c2)c1=O (centres unmarked) [Example 351]
2. C=C(F)C(F)(F)n1ncc(-c2ccc(S(N)(=O)=O)cc2)c(-c2ccc(F)cc2)c1=O [Example 142]
3. CON=C(Cn1ncc(-c2ccc(S(C)(=O)=O)cc2)c(-c2ccc(F)cc2)c1=O)c1ccccc1 [Example 443]
4. CC(C)CCOc1c(-c2ccc(S(C)(=O)=O)cc2)cnn(CC(F)(F)F)c1=O [Example 447]
5. CC(C)CCOc1c(-c2ccc(S(N)(=O)=O)cc2)cnn(-c2cccc(Cl)c2)c1=O [Example 394]
6. CS(=O)(=O)c1ccc(-c2cnn(Cc3ccc(F)cc3)c(=O)c2-c2ccc(F)cc2)cc1 [Example 20]

Ans:
[42, 32, 74, 35, 20, 9]

Parameters: items (list). Returns: inhibition at 0.01 µM for each item.
1. CC(C)COc1c(-c2ccc(S(C)(=O)=O)cc2)cnn(-c2ccc(F)c(F)c2)c1=O [Example 346]
2. CC(C)=CCOc1c(-c2ccc(S(C)(=O)=O)cc2)cnn(-c2cccc(Cl)c2)c1=O [Example 423]
3. COC(Cn1ncc(-c2ccc(S(C)(=O)=O)cc2)c(-c2ccc(F)cc2)c1=O)c1ccccc1 (centres unmarked) [Example 442]
4. C=C(C)CCOc1c(-c2ccc(S(C)(=O)=O)cc2)cnn(-c2ccc(F)cc2)c1=O [Example 425]
5. CC(C)COc1c(-c2ccc(S(N)(=O)=O)cc2)cnn(-c2cccc(Cl)c2)c1=O [Example 395]

Ans:
48
36
56
31
34

Provide reported inhibition at 0.01 µM for each item, in the same order as listed.
1. CS(=O)(=O)c1ccc(-c2cnn(-c3ccc(F)c(F)c3)c(=O)c2OCCC2C=CCC2)cc1 (centres unmarked) [Example 440]
2. CC(C)CCCc1c(-c2ccc(S(C)(=O)=O)cc2)cnn(-c2cccc(Cl)c2)c1=O [Example 421]
3. CC(C)CCOc1c(-c2ccc(S(C)(=O)=O)cc2)cnn(C(C)(C)C)c1=O [Example 330]
4. CS(=O)(=O)c1ccc(-c2cnn(-c3ccc(F)c(F)c3)c(=O)c2Oc2ccc(Cl)cc2)cc1 [Example 281]

Ans:
1: 22; 2: 38; 3: 5; 4: 47

###

# tested.on: recombinant human Cox-1 (r-hu Cox1) (Homo sapiens, UniProt P23219)
# Construct: made in house; host or cells: baculovirus/Sf9 insect cells (microsomes)
# method: Recombinant human PGHS-1 enzyme assay (RHUCX1)
# Assay type: biochemical
# reported.conditions: 100 μM; read-out: RHUCX1 % Inh. at Dose
readout.name: inhibition at 100 µM (%)
Numbers only, in %.

>  <molecule>
CON=C(Cn1ncc(-c2ccc(S(C)(=O)=O)cc2)c(-c2ccc(F)cc2)c1=O)c1ccccc1 [Example 443]

>  <unit.tag>
%

>  <inhibition at 100 µM>
35

$$$$

Each molecule below has a reported value. Please supply its inhibition at 100 µM.
1. CC(C)=CCn1ncc(-c2ccc(S(C)(=O)=O)cc2)c(-c2ccc(F)cc2)c1=O [Example 24]
2. CS(=O)(=O)c1ccc(-c2cnn(-c3ccc(F)c(F)c3)c(=O)c2Oc2ccc(F)cc2)cc1 [Example 109]
3. CS(=O)(=O)c1ccc(-c2cnn(Cc3ccc(F)cc3F)c(=O)c2-c2ccc(F)cc2)cc1 [Example 22]

Ans:
[60, 6, 25]

Hi, could you look up inhibition at 100 µM for each item in my list?
1. CS(=O)(=O)c1ccc(-c2cnn(C3CCCCC3)c(=O)c2-c2ccc(F)cc2)cc1 [Example 120]
2. CS(=O)(=O)c1ccc(-c2cnn(Cc3ccccc3)c(=O)c2-c2cc3ccccc3o2)cc1 [Example 318]
3. CS(=O)(=O)c1ccc(-c2cnn(CC(F)(F)F)c(=O)c2-c2ccc(Cl)cc2)cc1 [Example 58]
4. CC(C)CCc1c(-c2ccc(S(C)(=O)=O)cc2)cnn(-c2ccc(F)c(Cl)c2)c1=O [Example 257]
5. CS(=O)(=O)c1ccc(-c2cnn(Cc3ncc(Cl)s3)c(=O)c2-c2ccc(F)cc2)cc1 [Example 39]
6. NS(=O)(=O)c1ccc(-c2cnn(Cc3ccc(F)cc3)c(=O)c2-c2ccc(F)cc2)cc1 [Example 150]
7. CS(=O)(=O)c1ccc(-c2cnn(-c3cc(F)cc(F)c3)c(=O)c2Oc2ccc(F)cc2)cc1 [Example 111]

Ans:
1. 15
2. 23
3. 0
4. 0
5. 0
6. 56
7. 13

State recorded inhibition at 100 µM for all listed molecules.
1. CC(C)CCc1c(-c2ccc(S(N)(=O)=O)cc2)cnn(-c2ccc(F)cc2)c1=O [Example 396]
2. CCCCC(CC)COc1c(-c2ccc(S(C)(=O)=O)cc2)cnn(-c2ccc(F)cc2)c1=O (stereo not shown) [Example 178]
3. CS(=O)(=O)c1ccc(-c2cnn(CC(F)(F)F)c(=O)c2SC2CCCCC2)cc1 [Example 287]

Ans:
1: 22; 2: 6; 3: 0

###

Kindly supply the reported melting point values for the records listed here.

>  <molecule>
CC(C)COc1c(-c2ccc(S(C)(=O)=O)cc2)cnn(-c2cccc(C(F)(F)F)c2)c1=O

>  <melting point>
125 to 127 °C

$$$$
>  <molecule>
CS(=O)(=O)c1ccc(-c2cnn(-c3ccc(Cl)cc3F)c(=O)c2-c2ccc(F)cc2)cc1

>  <melting point>
250 to 260 °C

$$$$
>  <molecule>
CS(=O)(=O)c1ccc(-c2cnn(CC(=O)c3ccc(C#N)cc3)c(=O)c2-c2ccc(F)cc2)cc1

>  <melting point>
188 to 189 °C

$$$$
>  <molecule>
COc1ccc(Oc2c(-c3ccc(S(C)(=O)=O)cc3)cnn(-c3cccc(Cl)c3)c2=O)cc1

>  <melting point>
182 to 184 °C

$$$$
>  <molecule>
CS(=O)(=O)c1ccc(-c2cnn(-c3ccc(F)c(F)c3)c(=O)c2OCCC2CCCC2)cc1

>  <melting point>
100 to 101 °C

$$$$

I have 2 molecules here; please give me melting point for each one.
1. NS(=O)(=O)c1ccc(-c2cnn(-c3ccc(F)cc3)c(=O)c2Cc2cccc(F)c2)cc1
2. CS(=O)(=O)c1ccc(-c2cnn(-c3ccc(F)cc3)c(=O)c2Cc2ccccc2)cc1

Ans:
1: 199 to 202 °C; 2: 180 to 182 °C

The measured melting point associated with CC1CCCC1n1ncc(-c2ccc(S(C)(=O)=O)cc2)c(-c2ccc(F)cc2)c1=O (centres unmarked) reads 180 to 181 °C

###

# tested.on: Human Whole Platelet Cyclooxygenase-1 (Homo sapiens)
# Construct: from tissue; host or cells: human blood: isolated platelets (A4) or heparinised whole blood (A9)
# Sequence (P23219 24-599): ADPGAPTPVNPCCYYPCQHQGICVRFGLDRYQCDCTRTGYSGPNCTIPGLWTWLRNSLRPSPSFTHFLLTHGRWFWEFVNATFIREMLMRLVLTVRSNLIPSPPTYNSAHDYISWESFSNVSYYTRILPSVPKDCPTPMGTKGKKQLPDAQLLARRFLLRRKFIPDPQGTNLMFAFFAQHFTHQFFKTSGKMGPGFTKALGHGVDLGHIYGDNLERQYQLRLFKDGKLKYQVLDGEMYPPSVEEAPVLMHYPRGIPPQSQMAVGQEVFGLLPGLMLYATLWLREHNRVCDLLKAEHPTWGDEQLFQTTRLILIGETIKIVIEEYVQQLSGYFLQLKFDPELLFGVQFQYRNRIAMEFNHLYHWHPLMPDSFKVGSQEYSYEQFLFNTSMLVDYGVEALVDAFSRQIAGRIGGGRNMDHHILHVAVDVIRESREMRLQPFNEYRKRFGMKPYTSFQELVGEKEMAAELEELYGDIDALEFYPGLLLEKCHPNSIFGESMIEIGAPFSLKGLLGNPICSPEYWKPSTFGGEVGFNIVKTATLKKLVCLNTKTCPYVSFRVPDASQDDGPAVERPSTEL
# method: Human Whole Platelet Cyclooxygenase-1 assay (HWPX)
# Assay type: cell-based
# reported.conditions: 1 μM; read-out: HWPX % Inhib. at Dose
readout.name: inhibition at 1 µM (%)
Answers are plain numbers, in %.

Some solved entries appear below for comparison.
>  <compound.structure>
Cc1ccc(-n2ncc(-c3ccc(S(C)(=O)=O)cc3)c(-c3ccc(F)cc3)c2=O)s1

>  <unit.tag>
%

>  <numeric.value>
47

$$$$
>  <compound.structure>
CS(=O)(=O)c1ccc(-c2cnn(Cc3ccccc3)c(=O)c2-c2ccc(Cl)cc2)cc1

>  <unit.tag>
%

>  <numeric.value>
8

$$$$
>  <compound.structure>
CS(=O)(=O)c1ccc(-c2cnn(C3CCCCC3)c(=O)c2-c2ccc(F)cc2)cc1

>  <unit.tag>
%

>  <numeric.value>
58

$$$$

Turning now to a further compound:
The compound listed as CS(=O)(=O)c1ccc(-c2cnn(-c3cccc(Cl)c3)c(=O)c2Cc2ccccc2)cc1 shows inhibition at 1 µM equal to 50

###

Would you kindly list inhibition at 100 µM for each of these compounds?
# tested.on: recombinant human Cox-1 (r-hu Cox1) (Homo sapiens, UniProt P23219)
# Construct: made in house; host or cells: baculovirus/Sf9 insect cells (microsomes)
# method: Recombinant human PGHS-1 enzyme assay (RHUCX1)
# Type: biochemical
# reported.conditions: 100 μM; read-out: RHUCX1 % Inh. at Dose
Answers are plain numbers, in %.

Some entries whose results are on file:
>  <compound>
CC(C)CCc1c(-c2ccc(S(C)(=O)=O)cc2)cnn(-c2ccc(F)c(F)c2)c1=O

>  <unit.tag>
%

>  <numeric.value>
0

$$$$
>  <compound>
NS(=O)(=O)c1ccc(-c2cnn(CC(F)(F)F)c(=O)c2-c2ccc(Cl)cc2)cc1

>  <unit.tag>
%

>  <numeric.value>
2

$$$$
>  <compound>
CS(=O)(=O)c1ccc(-c2cnn(-c3ccc(F)c(Cl)c3)c(=O)c2-c2ccc(F)cc2)cc1

>  <unit.tag>
%

>  <numeric.value>
2

$$$$
>  <compound>
Cc1cc(-c2c(-c3ccc(S(C)(=O)=O)cc3)cnn(-c3ccc(F)c(F)c3)c2=O)ccc1F

>  <unit.tag>
%

>  <numeric.value>
22

$$$$
>  <compound>
CC(C)(O)COc1c(-c2ccc(S(N)(=O)=O)cc2)cnn(-c2ccc(F)cc2)c1=O

>  <unit.tag>
%

>  <numeric.value>
33

$$$$

Provide inhibition at 100 µM for all items below, preserving their order.
1. CC(C)CCc1c(-c2ccc(S(N)(=O)=O)cc2)cnn(-c2ccc(F)c(F)c2)c1=O
2. CC(C)=CCCOc1c(-c2ccc(S(C)(=O)=O)cc2)cnn(-c2ccc(F)c(F)c2)c1=O
3. NS(=O)(=O)c1ccc(-c2cnn(Cc3ccc(F)cc3F)c(=O)c2-c2ccc(F)cc2)cc1
4. CC(C)COc1c(-c2ccc(S(C)(=O)=O)cc2)cnn(CC(F)(F)F)c1=O

Ans:
1. 77
2. 0
3. 26
4. 36

Give me inhibition at 100 µM for each of these compounds, listed below.
1. CS(=O)(=O)c1ccc(-c2cnn(-c3ccc(F)c(F)c3)c(=O)c2C2CCCCC2)cc1
2. CC(C)CCc1c(-c2ccc(S(N)(=O)=O)c(F)c2)cnn(CC(F)(F)F)c1=O
3. CS(=O)(=O)c1ccc(-c2cnn(-c3ccc(F)cc3)c(=O)c2Oc2ccc(F)cc2)cc1
4. CS(=O)(=O)c1ccc(-c2cnn(-c3cccc(Cl)c3)c(=O)c2OCCC2CC2)cc1

Ans:
1. 23
2. 0
3. 0
4. 12

Parameters: items (list). Returns: inhibition at 100 µM for each item.
1. CC(C)CCCOc1c(-c2ccc(S(C)(=O)=O)cc2)cnn(-c2cccc(Cl)c2)c1=O
2. CS(=O)(=O)c1ccc(-c2cnn(-c3ccc(F)cc3)c(=O)c2C2CCCCC2)cc1

Ans:
[0, 7]

Reported inhibition at 100 µM for C[S+]([O-])c1ccc(-c2cnn(CC(F)(F)F)c(=O)c2-c2ccc(Cl)cc2)cc1 (stereo not shown) was 35
